Provenance of the data: ChEMBL document CHEMBL1201862

# Tested on: MDA-MB-435
# testDetails: NCI tumour cell line growth inhibition, 48 h
Active and inactive are the calls of the source. Cut-off read from the data, not from the text of the source: active = GI50 up to about 1.1 µM and inactive = higher.

>  <compound>
Cc1ccc(C)c(N2C(=O)C(=O)c3c(C)ccc(C)c32)c1

>  <GI50>
21.1 µM (inactive)

$$$$
>  <compound>
ONCCCn1cnc2c(NC3CC3)ncnc21

>  <GI50>
> 100 µM (inactive)

$$$$
>  <compound>
COc1ccc2o/c(=N/c3ccccc3)c(C(N)=O)cc2c1

>  <GI50>
3.45 µM (inactive)

$$$$
>  <compound>
c1ccc2c(c1)OC(N1CCCC1)c1cnc(N3CCCC3)nc1-2 (stereo unspecified)

>  <GI50>
49.8 µM (inactive)

$$$$
>  <compound>
Oc1c(Cl)cc2cc1-c1cc(cc(Cl)c1O)CCc1c(cc(Cl)c(O)c1Cl)-c1cc(Cl)c(c(Cl)c1O)/C=C\2

>  <GI50>
8.02 µM (inactive)

$$$$
>  <compound>
O=C1Cc2c([nH]c3ccccc23)C2(CC3CCCCN13)OCCO2 (stereo unspecified)

>  <GI50>
> 100 µM (inactive)

$$$$
